Assay: CREB reporter modulators under forskolin, primary screen, cell-based, PC12, CRE-LacZ reporter, forskolin-stimulated (AID 1146);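 note: PC12 cells with 6xCRE LacZ reporter stimulated by forskolin 10 µM; beta-galactosidase reporter signal reflecting CREB driven transcription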
Details: luminescence, 4.5 h, called active from +8 up or from −8 down
Activity calls are given as the source filed them.
Form entry, call: pick from class 1 for active, class 0 for inactive

Study these solved cases before continuing.
Compound | Class
C=CCNC(=O)[C@@H]1[C@H]2C(=O)O[C@H](c3ccccc3)[C@H](c3ccccc3)N2[C@H](c2ccccc2OCCO)[C@@]12C(=O)N(C(=O)OCCOC)c1ccc(C#CC3=CCCCC3)cc12 | class 0
COC(=O)c1c(CC[C@@H](CO)NC(=O)N[C@H](Cn2cc(-c3ccccc3C)nn2)C(C)C)oc(C(C)=O)c1C(=O)OC | class 0
CCOC(=O)C[C@H]1[C@H](OC(=O)c2ccc(-c3ccccc3)cc2)[C@@H](NC(=O)c2ccc3ccccc3n2)c2cc(OCCCO)ccc2N1C(=O)c1ccccc1 | class 0
CO[C@H]1O[C@H](CO)[C@@H](OC(=O)Nc2ccc(Oc3ccccc3)cc2)[C@H](OC(=O)Nc2ccccc2-c2ccccc2)[C@@H]1OC(=O)Nc1ccccc1-c1ccccc1 | class 0

### Prompt Hi, sorry to bother you, what did the test record for O=C1NC(=O)C2C1C=CC(C(O)c1ccc(Br)cc1)N2Nc1ccccn1 (stereo not given) ?
### Response class 0

### Prompt I'd appreciate the recorded outcome for `C=C(CCCC)/C(=C/C[C@@H](OC(=O)c1ccncc1)c1cccc(OCCO)c1)c1cnc2ccccc2c1` from this test.
### Response class 0

### Prompt What did the test return for `COc1ccc(CCNC(=O)[C@@]2(Sc3ccc(C)cc3)CC(=O)N(Cc3cc(C(F)(F)F)cc(C(F)(F)F)c3)[C@@H]2c2ccc(CO)cc2I)cc1` ?
### Response class 0

### Prompt Dear colleague, could you share the recorded outcome for COc1ccc(NN2C(C(O)c3ccccn3)C=CC3C(=O)N(C4CCCCC4)C(=O)C32)cc1 (stereo not given) when you have a moment?
### Response class 0

### Prompt What outcome does the record of this test show for `CN(C)CCCN1C(=O)[C@@]2(c3ccc([N+](=O)[O-])cc3)CC(=O)N(CC34CC5CC(CC(C5)C3)C4)[C@@H]2c2ccc(CO)cc21` ?
### Response class 0

### Prompt Could you check what this test reported for `[N-]=[N+]=NCc1ccccc1C[C@@]1(C(N)=O)N=C(c2ccc(OCCCO)cc2)O[C@@H]1c1ccccc1CN=[N+]=[N-]` ?
### Response class 0

### Prompt Outcome logged for `O=C(NC1CC1)[C@@H]1c2ccccc2C(=O)N(Cc2ccccc2)[C@H]1c1ccc(CO)cc1` in this assay:
### Response class 0

====

Test: P. aeruginosa biofilm formation inhibitors, primary screen, strain PAO1, LB-PBS medium, absorbance 600 nm (AID 1176); note: test concentration not given here
Settings: P. aeruginosa PAO1 growth/biofilm, A600, 12 h; higher = more signal
Answer each item with its documented z-score.
Numbers only.

Use the examples below as a reference point.
Chemical String | z-score
COc1ccc(C#Cc2ccc3c(c2)[C@]2(C(=O)N3)[C@H](C(=O)N3CCc4cc(OC)c(OC)cc4C3)[C@H]3C(=O)O[C@H](c4ccccc4)[C@H](c4ccccc4)N3[C@@H]2c2ccc(O)cc2)cc1 | 1.45
COCCCNC(=O)[C@@]1(Sc2ccc(C)cc2)CC(=O)N(Cc2cc(C(F)(F)F)cc(C(F)(F)F)c2)[C@@H]1c1ccc(CO)cc1 | 0.158

# input for lookup
### Prompt Note down z-score recorded for `CCOC(=O)C[C@H]1[C@H](OC(=O)c2ccccc2-c2ccccc2)[C@@H](NC(=O)c2ccc3ccccc3n2)c2cc(OCCCO)ccc2N1C(=O)c1ccc2ccccc2n1`
### Response 0.719
